The origin of these recorded values is patent US9334268B2.

molecular target: UniProtKB Q9NYK1; experiment: HEK-Blue human TLR7 SEAP reporter assay; conditions: HEK-Blue human TLR7 cells, NF-κB-regulated SEAP reporter, stimulation for 24 hr
Structures can show the parent of a compound that is named as a salt.
EC50 values, listed per item
The reply should be a number in nM, with the unit left off.

Guide cases for EC50, answers given:
molecule	measured_result
CCOCc1nc2c(N)nc3ccccc3c2n1CC(C)(C)OCCNCCCO	900
CCCCCc1nc2c(N)nc3ccccc3c2n1CC(C)(C)OCCN	152

Requested read-out: EC50. Entry: CCOCc1nc2c(N)nc3cc(Br)ccc3c2n1CC(C)(C)OCCN [Example 11, hydrochloride]
130

Consider the molecule `CCOCc1nc2c(N)nc3ccccc3c2n1CC(C)(C)OCCN` and give its measured EC50.
60

----------
EC50: recorded values
molecular target: human TLR7 (Homo sapiens (Human), UniProt Q9NYK1); assay: HEK-Blue human TLR7 SEAP reporter assay; conditions: HEK-Blue human TLR7 cells, NF-κB-regulated SEAP reporter, stimulation for 24 hr
Sequence (Q9NYK1 27-1049): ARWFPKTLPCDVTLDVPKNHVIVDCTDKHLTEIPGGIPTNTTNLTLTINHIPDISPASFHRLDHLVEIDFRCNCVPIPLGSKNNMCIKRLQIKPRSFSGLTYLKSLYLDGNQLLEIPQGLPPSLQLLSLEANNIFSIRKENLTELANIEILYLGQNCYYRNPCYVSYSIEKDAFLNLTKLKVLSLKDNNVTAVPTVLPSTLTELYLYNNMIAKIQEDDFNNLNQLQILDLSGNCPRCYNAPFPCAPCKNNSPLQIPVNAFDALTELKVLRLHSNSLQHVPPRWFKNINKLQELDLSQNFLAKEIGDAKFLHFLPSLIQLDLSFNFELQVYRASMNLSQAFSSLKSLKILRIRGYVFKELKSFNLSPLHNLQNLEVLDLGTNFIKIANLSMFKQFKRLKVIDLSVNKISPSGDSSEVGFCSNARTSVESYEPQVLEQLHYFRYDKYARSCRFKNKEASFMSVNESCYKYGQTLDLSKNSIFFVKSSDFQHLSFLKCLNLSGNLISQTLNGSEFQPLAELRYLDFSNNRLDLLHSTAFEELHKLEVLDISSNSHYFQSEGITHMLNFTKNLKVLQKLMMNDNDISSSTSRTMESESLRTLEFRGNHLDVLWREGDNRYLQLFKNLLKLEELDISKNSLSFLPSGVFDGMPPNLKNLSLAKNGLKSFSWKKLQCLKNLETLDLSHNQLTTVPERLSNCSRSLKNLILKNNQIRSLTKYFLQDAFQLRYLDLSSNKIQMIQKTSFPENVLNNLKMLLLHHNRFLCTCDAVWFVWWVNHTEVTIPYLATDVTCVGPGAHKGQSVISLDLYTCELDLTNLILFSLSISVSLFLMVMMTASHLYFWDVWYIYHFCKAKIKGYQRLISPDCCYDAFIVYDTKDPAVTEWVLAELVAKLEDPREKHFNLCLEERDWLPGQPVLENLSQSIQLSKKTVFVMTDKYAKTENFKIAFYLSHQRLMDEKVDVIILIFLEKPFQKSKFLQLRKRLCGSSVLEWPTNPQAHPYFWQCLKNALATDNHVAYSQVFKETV
Structures can show the parent of a compound that is named as a salt.
Numbers only here, please. The scale is µM.

Here are 6 compounds together with their reported answers.
compound	display_unit	measured_result
CCOCc1nc2c(N)nc3ccccc3c2n1CC(C)(C)OCCNC(=O)c1cccnc1 [Example 3]	µM	0.223
CCOCc1nc2c(N)nc3cc(CCC(=O)OCC)ccc3c2n1CC(C)(C)OC(=O)CN [Example 9]	µM	0.055
CCOCc1nc2c(N)nc3ccccc3c2n1CC(C)(C)OC(=O)CN [Example 2]	µM	0.05
CCOCc1nc2c(N)nc3cc(CCC(=O)OCC)ccc3c2n1CC(C)(C)OCCN [Example 8, hydrochloride]	µM	0.134
CCOCc1nc2c(N)nc3ccccc3c2n1CC(C)(C)OCCNC(=O)CCCCCNC(=O)OC(C)(C)C [Example 6]	µM	0.195
CCOCc1nc2c(N)nc3ccccc3c2n1CC(C)(C)OCCNC(C)=O [Example 4]	µM	0.027

As a next step, examine the compound that follows.
Can you share its EC50? I mean this compound: CCOCc1nc2c(N)nc3cc(/C=C/C(=O)OCC)ccc3c2n1CC(C)(C)OCCN [Example 7]
0.139

----------
Biological target: human TLR8 (Homo sapiens (Human), UniProt Q9NR97)
Sequence (Q9NR97 27-1041): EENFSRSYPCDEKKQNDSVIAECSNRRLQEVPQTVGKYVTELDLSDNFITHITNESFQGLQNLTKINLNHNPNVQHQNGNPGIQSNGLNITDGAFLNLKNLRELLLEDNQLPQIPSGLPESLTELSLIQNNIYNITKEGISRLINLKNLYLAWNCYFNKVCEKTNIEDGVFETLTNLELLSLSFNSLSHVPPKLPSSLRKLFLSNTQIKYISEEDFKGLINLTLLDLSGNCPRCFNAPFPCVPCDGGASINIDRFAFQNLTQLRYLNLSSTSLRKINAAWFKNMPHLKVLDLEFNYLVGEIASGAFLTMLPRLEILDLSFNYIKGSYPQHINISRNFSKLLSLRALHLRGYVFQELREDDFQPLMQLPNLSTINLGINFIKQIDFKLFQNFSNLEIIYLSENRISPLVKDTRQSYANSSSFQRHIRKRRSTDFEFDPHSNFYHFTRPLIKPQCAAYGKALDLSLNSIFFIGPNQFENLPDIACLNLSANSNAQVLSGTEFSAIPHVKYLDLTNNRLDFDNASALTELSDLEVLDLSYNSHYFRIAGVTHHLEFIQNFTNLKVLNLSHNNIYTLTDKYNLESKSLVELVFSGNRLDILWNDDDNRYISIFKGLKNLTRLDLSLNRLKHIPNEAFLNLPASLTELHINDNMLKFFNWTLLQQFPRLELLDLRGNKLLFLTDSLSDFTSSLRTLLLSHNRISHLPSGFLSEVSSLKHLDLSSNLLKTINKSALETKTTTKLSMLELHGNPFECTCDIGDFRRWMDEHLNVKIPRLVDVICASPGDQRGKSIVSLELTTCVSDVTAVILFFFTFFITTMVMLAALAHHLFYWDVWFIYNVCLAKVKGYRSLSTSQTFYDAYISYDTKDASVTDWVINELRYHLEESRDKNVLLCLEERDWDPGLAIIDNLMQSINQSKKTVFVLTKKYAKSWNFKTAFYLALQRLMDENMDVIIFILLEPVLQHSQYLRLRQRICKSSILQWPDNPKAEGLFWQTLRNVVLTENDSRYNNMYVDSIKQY
Assay: HEK-Blue human TLR8 SEAP reporter assay
Settings: HEK-Blue human TLR8 cells, NF-κB-regulated SEAP reporter, stimulation for 24 hr
Procedure: For TLR8 and TLR7 activity testing, HEK-Blue human TLR8 or TLR7 cells, respectively, (Invivogen, San Diego, Calif., USA) transfected with a SEAP reporter (secreted embryonic alkaline phosphatase) construct were used, in which the reporter expression is regulated by the NF-κB promoter upon stimulation for 24 hr. The reporter activity was determined using Quanti Blue kit (Invivogen, San Diego, Calif., USA) at a wavelength of 640 nm. […]
Where a name gives a salt, the structure may show the parent alone.
# T = EC50 below 3000 nM (exclusive); F = EC50 at/above 3000 nM

Reference set (5 entries):
compound	answer_label
CCOCc1nc2c(N)nc3ccccc3c2n1CCOCCN [reference compound]	F
CCOCc1nc2c(N)nc3cc(/C=C/C(=O)OCC)ccc3c2n1CC(C)(C)OCCN	T
CCCCCc1nc2c(N)nc3ccccc3c2n1CC(C)(C)OCCN	T
CCOCc1nc2c(N)nc3ccccc3c2n1CC(C)(C)OC(=O)CN	T
CCOCc1nc2c(N)nc3ccccc3c2n1CC(C)(C)OCCNC(=O)c1cccnc1	F

Could you please tell me whether EC50 recorded for CCOCc1nc2c(N)nc3cc(Br)ccc3c2n1CC(C)(C)OCCN [Example 11, hydrochloride] is less than 3000 nM?
T

Record CCOCc1nc2c(N)nc3cc(CCC(=O)OCC)ccc3c2n1CC(C)(C)OCCN [Example 8, hydrochloride] : is its EC50 strictly below 3000 nM?
T

Report whether reported EC50 is lower than 3000 nM (strictly) for `CCOCc1nc2c(N)nc3cc(CCC(=O)OCC)ccc3c2n1CC(C)(C)OC(=O)CN`
T

Does the reported EC50 of the following compound sit strictly below 3000 nM? `CCOCc1nc2c(N)nc3ccccc3c2n1CC(C)(C)OCCN`
T

Strictly below 3000 nM in EC50? `CCOCc1nc2c(N)nc3ccccc3c2n1CC(C)(C)OCCNC(=O)CCCCCNC(=O)OC(C)(C)C`
T

Answer whether the compound `CCOCc1nc2c(N)nc3ccccc3c2n1CC(C)(C)OCCNCCCO` has EC50 strictly less than 3000 nM
F
